Values compiled from ChEMBL document CHEMBL1955749.

Assay: Selectivity index, ratio of TC50 for MDCK cells to IC50 for influenza B virus
Format: toxicity, cell-based
Details: dog, read-out: Selectivity Index
Classify: Yes when selectivity ratio is strictly less than 9; No when selectivity ratio is not.

stdin: Strictly below 9 in selectivity ratio? `C=C(C(=O)OCCCCCn1cncn1)[C@@H]1CC[C@H](C)[C@@H]2CC(=O)C(C)=C2C1`
stdout: No

stdin: Problem: For the compound `C=C(C(=O)OCCCCCCCCCCn1cncn1)[C@@H]1CC[C@H](C)[C@@H]2CC(=O)C(C)=C2C1` , is selectivity ratio under 9?
stdout: Yes

stdin: I'd appreciate it if you could check whether `C=C(C(=O)OCCCCBr)[C@@H]1CC[C@H](C)[C@@H]2CC(=O)C(C)=C2C1` has selectivity ratio smaller than 9.
stdout: Yes

stdin: A record lists `C=C(C(=O)OCCCCn1cncn1)[C@@H]1CC[C@H](C)[C@@H]2CC(=O)C(C)=C2C1` . Is its selectivity ratio below 9?
stdout: Yes

stdin: # check: selectivity ratio < 9 for NC(=O)c1ncn([C@@H]2O[C@H](CO)[C@@H](O)[C@H]2O)n1 [RIBAVIRIN]
stdout: No

stdin: Answer whether the compound `C=C(C(=O)OCCCCCCCCn1cncn1)[C@@H]1CC[C@H](C)[C@@H]2CC(=O)C(C)=C2C1` has selectivity ratio strictly less than 9
stdout: No

stdin: Lab note: confirm whether the reported selectivity ratio for this compound is below 9, equality not counting. compound: `C=C(C(=O)OCCCCCN1CCN(C)CC1)[C@@H]1CC[C@H](C)[C@@H]2CC(=O)C(C)=C2C1`
stdout: No
